system: HBMEC monolayer; conditions: matrix ASFE extract 24 µg/mL, 2 h incubation; n.d = not detected in lower compartment
test_readout: Te % (SEM) 2 h

1. Oc1cc(O)c2c(c1)O[C@H](c1ccc(O)c(O)c1)[C@H](O)[C@H]2c1c(O)cc(O)c2c1O[C@H](c1ccc(O)c(O)c1)[C@H](O)C2 [Procyanidin B2] :: 56.8 (0.0) %

// switching to the query molecule
Kindly note the recorded Te % (SEM) 2 h for CC(CC(=O)C[C@@H](C)[C@H]1C[C@H](O)[C@@]2(C)C3=C(C(=O)C[C@]12C)[C@@]1(C)CC[C@H](O)C(C)(C)[C@@H]1CC3)C(=O)O (some centres unmarked) [Ganolucidic acid B] , which is 28.4 (1.1) %
